Value source: the supplement of paper PMC7455731

assay: collision cross section (DTIM-MS, N2); higher = larger ion; details: ion adduct: [M+H]+
propertyLabel: collision cross section (Å²)

> print(dat)
                                   compound  measurement
1  Nc1ccn([C@@H]2O[C@H](CO)[C@@H](O)C2(F)F)c(=O)n1       155.86
2  COc1ccc(C[C@H]2NC[C@H](O)[C@H]2OC(C)=O)cc1       164.18
3  CC(=O)/C=C/c1ccccc1 [trans-4-phenylbut-3-en-2-one]       131.24
4  COc1cc2oc(-c3ccc(O)cc3)cc(=O)c2c(O)c1C1OC(CO)C(O)C(O)C1OC1OC(CO)C(O)C(O)C1O (centres undefined)       235.99
